- measured-target: human motilin receptor (GPR38) (Homo sapiens, UniProt O43193)
- Construct: expressed in transfected cells; host or cells: CHO-K1
- Sequence (O43193 whole entry): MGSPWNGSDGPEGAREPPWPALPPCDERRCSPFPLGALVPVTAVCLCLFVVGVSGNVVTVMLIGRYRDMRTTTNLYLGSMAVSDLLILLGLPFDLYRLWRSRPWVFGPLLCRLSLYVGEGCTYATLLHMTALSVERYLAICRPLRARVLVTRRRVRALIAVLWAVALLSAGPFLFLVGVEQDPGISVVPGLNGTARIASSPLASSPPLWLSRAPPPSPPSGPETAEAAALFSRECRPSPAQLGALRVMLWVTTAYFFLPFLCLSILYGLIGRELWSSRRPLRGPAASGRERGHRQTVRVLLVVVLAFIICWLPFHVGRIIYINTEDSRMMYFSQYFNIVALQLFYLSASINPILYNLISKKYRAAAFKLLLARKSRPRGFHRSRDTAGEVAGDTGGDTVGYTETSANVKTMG
- experiment-description: GPR38 (Motilin Receptor) Functional Assay, NFAT-beta-lactamase reporter in CHO-K1 cells
- Type: cell-based
- Description: The potencies and efficacies of the compounds of this invention for GPR38 can be determined by reporter assay performed on the human cloned receptor as described herein. GPR38 (Motilin Receptor) Functional Assay A CHO-K1 cell line stably transfected NFAT-beta-lactamase reporter and human motilin receptor gene was used. […] Agonistic activity (EC50) was calculated from the sigmoidal dose-response curve using GraphPad Prism software (GraphPad Software, Inc.).
pEC50: −log10 of the molar value.
Recorded pEC50 values for a group of compounds are listed next.

compound	pEC50
CCC1(NC(=O)N[C@@H](CCc2ccccc2)C(=O)N2CCC(N3C(=O)C(C)(C)c4ccccc43)CC2)CCNCC1 [Example 55]	≥ 8.00
CN[C@@H]1CC[C@H](C(=O)N[C@@H](Cc2ccccc2C(F)(F)F)C(=O)N2CCC(N3C(=O)C(C)(C)c4ccccc43)CC2)C1 [Example 22]	≥ 8.00
C[C@@H]1CN(C(=O)N[C@@H](CCc2ccccc2)C(=O)N2CCC(N3C(=O)C(C)(C)c4ccccc43)CC2)CCN1 [Example 54]	≥ 8.00
